Field: change of melting temperature, mutant - wild type (higher = more stable). Provide a value for each of the variants that follow.
B1: Ribonuclease HI, P0A7Y4 (parent)
chain: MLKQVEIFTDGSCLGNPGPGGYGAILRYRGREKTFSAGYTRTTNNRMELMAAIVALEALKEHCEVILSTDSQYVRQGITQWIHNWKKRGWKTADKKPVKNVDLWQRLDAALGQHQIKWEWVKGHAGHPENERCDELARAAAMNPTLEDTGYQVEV

# Variants of: B1
# APPLIED CONDITIONS: Escherichia coli (strain K12); pH 5.5; Thermal; CD; glycine-HCl 10 mM; reversible: yes; structure 2RN2; whole UniProt chain shown
Numbers only, in °C.

Examples with their reported change of melting temperature, mutant - wild type (higher = more stable) follow.
K91R D94E K95G | 5.6
D94R K95G | 5.5
A125T | 0
K91R D94E | -1.8
K91R K95G | 5.8

Then this variant:
Look up change of melting temperature, mutant - wild type (higher = more stable) of Y28F R29H G30A R31H and report it.
-3.2

# credit: FireProtDB
